Test system: PPARg:RXRa IVT, anti-PPARg (NR concentration 270 nM, RXRa partner concentration 90 nM)
Experiment: PBM binding z-score (relative to random genomic background probes); higher = stronger binding; sequences stand for … in GC…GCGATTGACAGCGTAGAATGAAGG
The following sequences are shown together with reported PBM binding z-score values.

Worked examples, 6 sequences total:
{"columns": ["SEQUENCE CONTENT", "PBM binding z-score"],
 "data": [
  ["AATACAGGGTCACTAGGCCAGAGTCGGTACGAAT", 5.73],
  ["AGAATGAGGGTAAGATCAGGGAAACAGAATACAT", 1.71],
  ["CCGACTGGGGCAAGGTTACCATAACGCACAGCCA", 3.67],
  ["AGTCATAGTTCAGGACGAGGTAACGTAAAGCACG", 0.674],
  ["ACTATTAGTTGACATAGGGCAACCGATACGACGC", 0.742],
  ["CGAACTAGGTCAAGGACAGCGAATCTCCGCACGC", 8.26]
]}

GET /values?readout=PBM binding z-score&item= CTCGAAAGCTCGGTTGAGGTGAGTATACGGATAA
-0.193

----------
Test system: PPARg DBDmut IVT, anti-PPARg (DBD mutation: PPARg1 K132A/R137A, NR concentration 270 nM)
Experiment: PBM binding z-score (relative to random genomic background probes); higher = stronger binding; sequences stand for … in GC…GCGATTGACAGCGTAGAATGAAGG
RECORDED ENDPOINT: PBM binding z-score
Lab note: jot the number down without any unit.

Example sequences with recorded PBM binding z-score:
{"columns": ["SEQUENCE CONTENT", "VAL"],
 "data": [
  ["AGTCAAAGTTCATCTAGGAAACGTAAGATATGCT", 0.7],
  ["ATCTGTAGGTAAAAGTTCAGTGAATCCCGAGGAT", 0.681],
  ["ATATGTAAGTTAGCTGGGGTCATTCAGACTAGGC", 0.596]
]}

Any idea what PBM binding z-score was measured for AGGACGAGGGCACGCTGAGTTGATAGCAGAGTAG ?
-0.533

What do we get for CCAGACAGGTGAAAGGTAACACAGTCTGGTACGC ?
-0.499

Next entry: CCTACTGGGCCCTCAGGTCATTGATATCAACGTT
-0.58

What do you have for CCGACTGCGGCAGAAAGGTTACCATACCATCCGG ?
-0.931

# repeat for CTTCAAAGTTCAACTAAGGTAACGTAAAGCACGC
1.17

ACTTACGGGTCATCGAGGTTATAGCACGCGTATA , same question.
1.14

----------
Tested on: PPARa:RXRa (NR concentration 270 nM, RXRa partner concentration 90 nM)
Test: PBM binding z-score (relative to random genomic background probes); higher = stronger binding; sequences stand for … in GC…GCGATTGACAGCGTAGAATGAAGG
Each item that follows carries a reported PBM binding z-score.
Please reply with the number alone, leaving off any unit.

{"columns": ["SEQUENCE CONTENT", "VAL"],
 "data": [
  ["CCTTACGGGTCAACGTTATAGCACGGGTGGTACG", 4.99],
  ["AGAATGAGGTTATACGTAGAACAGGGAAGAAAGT", 3.07],
  ["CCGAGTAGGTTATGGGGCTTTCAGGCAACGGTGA", 1.34]
]}

# get_value(readout='PBM binding z-score', item= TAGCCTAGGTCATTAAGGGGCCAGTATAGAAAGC )
3.21

Another sequence to check: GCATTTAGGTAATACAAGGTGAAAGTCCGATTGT
1.27

Same thing, different sequence: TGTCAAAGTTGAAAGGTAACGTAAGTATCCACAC
3.49

----------
Test system: RXRa homodimer (NR concentration 180 nM)
Assay: PBM binding z-score (relative to random genomic background probes); higher = stronger binding; sequences stand for … in GC…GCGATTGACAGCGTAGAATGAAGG
Catalogue of sequences with associated PBM binding z-score
Keep it simple and answer with nothing but the number.

As a guide, the following entries are already answered.
{"columns": ["SEQUENCE CONTENT", "PBM binding z-score"],
 "data": [
  ["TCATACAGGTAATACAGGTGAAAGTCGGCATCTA", 1.23],
  ["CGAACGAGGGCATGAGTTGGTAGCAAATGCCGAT", 0.675],
  ["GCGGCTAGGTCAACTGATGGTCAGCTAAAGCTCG", 2.84],
  ["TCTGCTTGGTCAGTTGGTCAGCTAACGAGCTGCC", -0.439]
]}

Then there is this sequence:
Given the entry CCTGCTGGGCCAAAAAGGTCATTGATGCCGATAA , report its measured PBM binding z-score.
4.91

----------
Measured PBM binding z-score, listed per entry.
System: RARg:RXRa (NR concentration 270 nM, RXRa partner concentration 90 nM)
Assay: PBM binding z-score (relative to random genomic background probes); higher = stronger binding; sequences stand for … in GC…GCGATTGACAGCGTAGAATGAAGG

Example entries begin here.
{"columns": ["SEQUENCE CONTENT", "RECORDED ENDPOINT", "VAL"],
 "data": [
  ["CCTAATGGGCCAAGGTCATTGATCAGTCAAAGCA", "PBM binding z-score", 3.94],
  ["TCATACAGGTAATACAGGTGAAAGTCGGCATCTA", "PBM binding z-score", 0.731],
  ["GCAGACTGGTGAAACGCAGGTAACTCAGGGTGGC", "PBM binding z-score", -0.789],
  ["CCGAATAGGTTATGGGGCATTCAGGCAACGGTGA", "PBM binding z-score", 1.06],
  ["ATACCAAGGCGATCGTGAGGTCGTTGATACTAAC", "PBM binding z-score", 0.636],
  ["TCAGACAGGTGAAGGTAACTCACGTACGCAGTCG", "PBM binding z-score", 0.706],
  ["CCTAGTTGATCAAGGTCACACACGCTATAGGTAC", "PBM binding z-score", 4.24],
  ["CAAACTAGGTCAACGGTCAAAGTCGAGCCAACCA", "PBM binding z-score", 4.94]
]}

Provide the documented PBM binding z-score with RARg:RXRa (NR concentration 270 nM, RXRa partner concentration 90 nM) as the system for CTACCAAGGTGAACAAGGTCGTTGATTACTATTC
1.73

Next entry: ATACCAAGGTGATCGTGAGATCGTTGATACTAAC
0.309

Can you handle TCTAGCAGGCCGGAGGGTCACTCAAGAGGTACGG next?
2.01

----------
Tested on: RARb:RXRa (NR concentration 270 nM, RXRa partner concentration 90 nM)
Assay: PBM binding z-score (relative to random genomic background probes); higher = stronger binding; sequences stand for … in GC…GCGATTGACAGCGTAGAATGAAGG
Below, each entry is listed with its recorded PBM binding z-score.
// keep it numeric: no unit symbol after the value

Example sequences with recorded PBM binding z-score:
{"columns": ["SEQUENCE CONTENT", "SYSTEM UNDER TEST", "PBM binding z-score"],
 "data": [
  ["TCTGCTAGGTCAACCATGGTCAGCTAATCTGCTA", "RARb:RXRa (NR concentration 270 nM, RXRa partner concentration 90 nM)", 4.21],
  ["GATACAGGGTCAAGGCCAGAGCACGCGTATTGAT", "RARb:RXRa (NR concentration 270 nM, RXRa partner concentration 90 nM)", 4.5]
]}

Requested read-out: PBM binding z-score. Entry: CGTCCAAGGTCATAGGAGGTCAGAGAAGACAGAT
5.51

Now the sequence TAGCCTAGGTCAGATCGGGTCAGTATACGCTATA
3.55

# iterate: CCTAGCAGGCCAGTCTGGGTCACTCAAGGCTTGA
1.42

Now the sequence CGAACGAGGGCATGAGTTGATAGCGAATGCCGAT
1.97

Follow-up item: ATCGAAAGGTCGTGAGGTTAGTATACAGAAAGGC
3.99

Record: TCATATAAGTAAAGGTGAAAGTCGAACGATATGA
1.99

----------
Listing: PBM binding z-score of selected sequences
System: PXR homodimer (NR concentration 270 nM)
Test: PBM binding z-score (relative to random genomic background probes); higher = stronger binding; sequences stand for … in GC…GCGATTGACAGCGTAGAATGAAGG
Response field accepts a number only; no unit should be typed.

Some solved entries appear below for comparison.
{"columns": ["SEQUENCE CONTENT", "PBM binding z-score"],
 "data": [
  ["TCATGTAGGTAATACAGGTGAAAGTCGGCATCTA", -0.325],
  ["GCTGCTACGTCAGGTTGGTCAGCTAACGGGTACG", -0.732],
  ["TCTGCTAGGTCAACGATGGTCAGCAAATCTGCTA", -0.599],
  ["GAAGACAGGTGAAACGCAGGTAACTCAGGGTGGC", -0.579],
  ["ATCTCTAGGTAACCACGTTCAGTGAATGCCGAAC", 0.023],
  ["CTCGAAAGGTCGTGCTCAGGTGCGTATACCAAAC", 0.43]
]}

Request the reported PBM binding z-score associated with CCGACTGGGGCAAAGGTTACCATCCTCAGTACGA
-0.625

Then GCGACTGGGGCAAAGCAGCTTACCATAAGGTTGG ?
-0.894

Next up: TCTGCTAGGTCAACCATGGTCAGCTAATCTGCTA
-0.872

Now the same for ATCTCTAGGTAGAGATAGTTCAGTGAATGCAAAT
0.253

Try this sequence too: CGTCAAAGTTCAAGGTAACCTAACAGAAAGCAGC
2.12
